# pKi against the protein given by its sequence, merged from multiple literature sources
Sequence of the target: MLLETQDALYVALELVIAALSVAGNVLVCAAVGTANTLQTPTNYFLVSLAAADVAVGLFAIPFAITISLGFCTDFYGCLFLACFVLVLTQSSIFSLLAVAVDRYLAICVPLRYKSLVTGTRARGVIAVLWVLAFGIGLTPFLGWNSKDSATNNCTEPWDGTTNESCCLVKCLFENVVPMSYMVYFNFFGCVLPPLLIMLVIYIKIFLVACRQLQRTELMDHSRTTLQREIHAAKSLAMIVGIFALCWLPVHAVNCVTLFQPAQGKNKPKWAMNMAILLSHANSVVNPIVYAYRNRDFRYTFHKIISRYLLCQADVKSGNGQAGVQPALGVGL
pKi: −log10 of the molar value.

> print(dat)
                                entrysmiles  observedresult
1  CCCn1c(=O)c2nc(-c3cc(OCC(=O)c4ccc(F)cc4)nn3C)[nH]c2n(CCC)c1=O          < 6.00
2  CCCn1c(=O)c2[nH]c(-c3nn(CC(=O)Nc4ccc(Cl)cc4)c(C)c3I)nc2n(CCC)c1=O          < 6.00

// switching to the query compound
(Q) Quick one: pKi of "O=C(Nc1ccncc1)Nc1nc2nn(CCCO)cc2c2nc(-c3ccco3)nn12" ?
(A) < 6.00

----------
# pKi against the protein given by its sequence, merged from multiple literature sources
Target chain: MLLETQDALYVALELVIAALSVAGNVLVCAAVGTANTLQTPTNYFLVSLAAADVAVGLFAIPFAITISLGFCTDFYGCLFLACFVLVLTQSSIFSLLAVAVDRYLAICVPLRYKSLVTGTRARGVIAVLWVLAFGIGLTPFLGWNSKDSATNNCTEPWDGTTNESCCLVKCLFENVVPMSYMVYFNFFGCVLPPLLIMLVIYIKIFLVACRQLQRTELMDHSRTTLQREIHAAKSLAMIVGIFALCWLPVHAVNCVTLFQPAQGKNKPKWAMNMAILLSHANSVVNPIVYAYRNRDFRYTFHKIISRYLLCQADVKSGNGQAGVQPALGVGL
Scale note: pKi = -log10(concentration in M).

The following molecules have reported results that may help.
> print(dat)
                                   molecule                       testedsystem  readoutlabel  observedresult
1  CCCC1=C(C(=O)OCC)C(c2ccco2)NC(=O)N1 (racemic)  the protein given by its sequence           pKi            6.59
2  CCCn1c(=O)c2nc(-c3ccc(Br)cc3)[nH]c2n(CCC)c1=O  the protein given by its sequence           pKi            8.42
3  CC(O)CNc1nc2ccccc2n2nc(-c3ccco3)nc12 (stereo unspecified)  the protein given by its sequence           pKi            7.17
4  CCCn1c(=O)c2[nH]c(-c3ccc(OCC(=O)Nc4ccc(I)cc4)cc3)cc2n(CCC)c1=O  the protein given by its sequence           pKi            7.71

(Q) Quick one: pKi of "CCN(C(C)=O)c1ccc(OC)c2nc(NC(=O)c3ccc(C(=O)OC)cc3)sc12" ?
(A) 7.82

(Q) Quick one: pKi of "CCCn1c(=O)c2nc(-c3cc(O)ccc3O)[nH]c2n(CCC)c1=O" ?
(A) 6.86

(Q) Quick one: pKi of "COCn1c(=O)c2c(ncn2C)n(C)c1=O" ?
(A) 4.85

(Q) Quick one: pKi of "CCCn1c(=O)c2[nH]c(-c3cnn(CC(=O)Nc4ccccc4Cl)c3)nc2n(CCC)c1=O" ?
(A) 7.66

(Q) Quick one: pKi of "CCn1c(=O)[nH]c2nc(-c3cnn(Cc4cccc(F)c4)c3)[nH]c2c1=O" ?
(A) 7.14

(Q) Quick one: pKi of "CCCn1c(=O)[nH]c2nc(-c3cnn(Cc4noc(-c5ccc(C(F)(F)F)cc5)n4)c3)[nH]c2c1=O" ?
(A) 7.82

(Q) Quick one: pKi of "CCn1c(=O)c2[nH]c(-c3ccc(OCC(=O)Nc4ccon4)cc3)nc2n(CCCOC)c1=O" ?
(A) 7.68

(Q) Quick one: pKi of "CCCn1c(=O)c2[nH]c(-c3cnn(Cc4nc(-c5cccc(Cl)c5)no4)c3)nc2n(CCC)c1=O" ?
(A) 7.49

(Q) Quick one: pKi of "CCn1nnc([C@H]2O[C@@H](n3cnc4c(N)nc(N[C@H](CO)Cc5ccc(Br)cc5)nc43)[C@H](O)[C@@H]2O)n1" ?
(A) 5.65

(Q) Quick one: pKi of "CCCn1c(=O)c2c(nc(-c3ccccc3)n2CCCl)n(CCC)c1=O" ?
(A) 6.16

(Q) Quick one: pKi of "CC(=O)Nc1cc(-c2ccoc2)nc(-c2ccoc2)n1" ?
(A) 6.52
